# Tested on: agonist or antagonist activity in mice and rats
# Assay details: Agonist and/or antagonist activity in mice and rats, overall assessment of the testing results
# Type: in vivo
# Conditions used: conclusion from Table I
Reported endpoint: agonist or antagonist activity (in words)

{"Molecule": "COc1ccc2c(c1)[C@]13CCN(CC4CC4)[C@H](C2)[C@@H]1OC(C)(C)OC3.O=C(O)/C=C/C(=O)O", "Measurement": "Outstanding"}
{"Molecule": "Oc1ccc2c(c1)[C@]13CCN(CC4CC4)[C@H](C2)[C@@H]1OCOC3", "Measurement": "Outstanding"}
{"Molecule": "COc1ccc2c(c1)[C@]13CCN(CC4CC4)[C@H](C2)[C@@H]1OCOC3.O=C(O)/C=C/C(=O)O", "Measurement": "Outstanding"}
{"Molecule": "CC1(C)OC[C@]23CCN(CC4CC4)[C@H](Cc4ccc(O)cc42)[C@@H]3O1.O=C(O)C(O)C(O)C(=O)O (single isomer, unassigned) [(-)-XVd]", "Measurement": "Outstanding"}
{"Molecule": "CC1(C)OC[C@]23CCN(CC4CCC4)[C@H](Cc4ccc(O)cc42)[C@@H]3O1.O=C(O)/C=C/C(=O)O", "Measurement": "Outstanding"}
{"Molecule": "O=C(O)/C=C/C(=O)O.Oc1ccc2c(c1)[C@]13CCN(CC4CCC4)[C@H](C2)[C@@H]1OCOC3", "Measurement": "Outstanding"}
{"Molecule": "C[C@@]12OCOC[C@@]13CCN(CC1CC1)[C@@H]2Cc1ccc(O)cc13.O=C(O)/C=C/C(=O)O", "Measurement": "Outstanding"}
{"Molecule": "CC1(C)OC[C@]23CCN(CC4CC4)[C@H](Cc4ccc(O)cc42)[C@@H]3O1.O=C(O)/C=C/C(=O)O", "Measurement": "Outstanding"}
{"Molecule": "COc1ccc2c(c1)[C@]13CCN(CC4CC4)[C@H](C2)[C@@H]1OC(C)(C)OC3.O=C(O)C(O)C(O)C(=O)O (single isomer, unassigned) [(-)-XIVd]", "Measurement": "Outstanding"}
